# experimental target: HIS-NDM-1 (New Delhi metallo-beta-lactamase 1) (E. coli, UniProt C7C422 29-270)
# Sequence (C7C422 29-270): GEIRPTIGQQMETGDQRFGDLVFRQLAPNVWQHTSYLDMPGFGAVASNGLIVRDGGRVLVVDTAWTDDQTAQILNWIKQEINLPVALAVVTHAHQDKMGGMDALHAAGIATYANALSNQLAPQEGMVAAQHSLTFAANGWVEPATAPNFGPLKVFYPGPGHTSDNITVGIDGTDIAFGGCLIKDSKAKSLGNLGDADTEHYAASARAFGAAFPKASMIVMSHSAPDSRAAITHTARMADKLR
# experiment: SPR; aptamer immobilized; 20 mM Tris-HCl pH 7.4, 140 mM NaCl, 5 mM MgCl2, 1 mM CaCl2, 1 mM KCl; FLAA/MST with 0.1% BSA and 0.05% Tween 20 (FLAA at RT); SPR without BSA, 0.005% Tween 20
# condition parameters: protein: commercial; tags: N-terminal His6; label: 5'-BiotinTEG (SPR); 5'-Cy5 (MST); none (FLAA)
value type: pKd
Give bare numbers, as −log10 of the molar value.

The binder listed as NDM1-H14.2_43 (ssDNA) DNA: GTATCTGGTGGTCTATGGCCGCTATCCGCAATCTGTCTCTTTTCTTTATTCTTTTACTCACCGCATAGACGACGAAGAAC has a reported pKd of 6.13
